neutralization IC50: recorded values
Target: Env of HIV-1 strain 3415.v1.c1 (HIV-1)
Test: cell-based or functional assay
measurement_type: neutralization IC50 (µg/mL)

INSERT INTO assay_data (binder, measurement_qualifier, measured_result) VALUES
  ('γ22κ18 (antibody, V domains shown) VH: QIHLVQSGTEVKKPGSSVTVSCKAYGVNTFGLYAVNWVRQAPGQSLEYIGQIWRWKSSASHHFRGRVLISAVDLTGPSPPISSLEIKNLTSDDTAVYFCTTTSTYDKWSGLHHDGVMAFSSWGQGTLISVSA VL: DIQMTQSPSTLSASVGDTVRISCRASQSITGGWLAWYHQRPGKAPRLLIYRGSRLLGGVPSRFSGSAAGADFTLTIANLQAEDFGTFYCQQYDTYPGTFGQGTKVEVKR', '>', 15),
  ('γ23κ5 (antibody, V domains shown) VH: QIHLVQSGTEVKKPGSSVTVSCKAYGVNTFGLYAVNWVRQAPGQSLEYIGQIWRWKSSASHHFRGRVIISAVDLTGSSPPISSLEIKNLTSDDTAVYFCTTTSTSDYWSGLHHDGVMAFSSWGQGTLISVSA VL: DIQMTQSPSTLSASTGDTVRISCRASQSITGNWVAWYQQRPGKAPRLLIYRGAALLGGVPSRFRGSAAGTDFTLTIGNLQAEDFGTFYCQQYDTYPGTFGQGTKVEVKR', '=', 1.48),
  ('γ52κ5 (antibody, V domains shown) VH: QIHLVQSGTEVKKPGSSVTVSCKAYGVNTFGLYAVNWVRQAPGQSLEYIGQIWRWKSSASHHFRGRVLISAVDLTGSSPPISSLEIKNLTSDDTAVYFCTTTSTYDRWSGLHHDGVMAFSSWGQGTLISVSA VL: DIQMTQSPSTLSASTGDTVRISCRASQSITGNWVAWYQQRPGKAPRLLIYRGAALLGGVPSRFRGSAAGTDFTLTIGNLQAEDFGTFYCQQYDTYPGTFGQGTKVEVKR', '=', 0.12),
  ('γ59κ5 (antibody, V domains shown) VH: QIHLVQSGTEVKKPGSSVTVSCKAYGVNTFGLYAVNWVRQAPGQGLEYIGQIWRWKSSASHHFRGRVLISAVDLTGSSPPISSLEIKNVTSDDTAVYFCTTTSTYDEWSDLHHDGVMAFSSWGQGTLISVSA VL: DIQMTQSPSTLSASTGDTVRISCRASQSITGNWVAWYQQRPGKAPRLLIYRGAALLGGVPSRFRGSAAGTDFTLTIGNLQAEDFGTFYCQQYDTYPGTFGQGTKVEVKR', '>', 15),
  ('γ4κ18 (antibody, V domains shown) VH: QIHLVQSGTEVKKPGSSVTVSCKAYGVNTFGLYAVNWVRQAPGQSLEYIGQIWRWKSSASHHFRGRVIISAVDLTGSSPPISPLEIKNLTSDDTAVYFCTTTSTSDRWSGLHHDGVMAFSSWGQGTLISVSA VL: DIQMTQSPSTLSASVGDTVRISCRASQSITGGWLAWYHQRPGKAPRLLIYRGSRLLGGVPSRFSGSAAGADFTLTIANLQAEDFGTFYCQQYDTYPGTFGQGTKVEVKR', '>', 15);
